- Target: Human GlyT1 (human) (UniProt P48067)
- Sequence (P48067 whole entry): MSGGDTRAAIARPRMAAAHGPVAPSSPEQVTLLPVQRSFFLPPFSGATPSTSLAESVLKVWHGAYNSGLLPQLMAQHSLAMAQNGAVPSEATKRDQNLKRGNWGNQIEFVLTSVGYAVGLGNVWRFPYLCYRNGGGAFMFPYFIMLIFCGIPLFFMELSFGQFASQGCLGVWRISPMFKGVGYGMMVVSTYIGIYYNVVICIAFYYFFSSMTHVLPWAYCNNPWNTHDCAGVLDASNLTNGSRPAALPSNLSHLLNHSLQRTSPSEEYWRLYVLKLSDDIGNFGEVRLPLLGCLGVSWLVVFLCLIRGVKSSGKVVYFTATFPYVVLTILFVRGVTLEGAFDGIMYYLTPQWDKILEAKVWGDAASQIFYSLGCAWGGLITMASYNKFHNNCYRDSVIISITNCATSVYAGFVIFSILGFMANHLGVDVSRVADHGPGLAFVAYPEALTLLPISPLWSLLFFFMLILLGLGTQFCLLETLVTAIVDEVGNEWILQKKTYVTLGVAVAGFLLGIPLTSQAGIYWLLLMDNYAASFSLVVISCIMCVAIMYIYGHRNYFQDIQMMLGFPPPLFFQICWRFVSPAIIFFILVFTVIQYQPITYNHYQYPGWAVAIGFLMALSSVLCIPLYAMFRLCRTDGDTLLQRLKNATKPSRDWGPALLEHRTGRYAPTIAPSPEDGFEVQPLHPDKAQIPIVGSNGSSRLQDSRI
- Assay remarks: SPR; Biacore T200, 18°C; biotinylated GlyT1 (about 300 RU) on SA sensor, sybody up to 2 µM as analyte; 20 mM Citrate pH 6.4, 150 mM NaCl, 0.004% LMNG; 50 µl/min; 1:1 model; single cycle for Sb_GlyT1#6; KD from kinetics or from equilibrium as the column says
pKd: −log10 of the molar value.
Observation type: pKd

INSERT INTO assay_data (binder, observation_type, experimental_result) VALUES
  ('Sb_GlyT1#1 (VHH) VHH: QVQLVESGGGLVQAGGSLRLSCAASGFPVYYSHMLWYRQAPGKEREWVAAIKSLGAKTWYADSVKGRFTISRDNAKNTVYLQMNSLKPEDTAVYYCTVGVGTNYYGQGTQVTVS', 'pKd', 6.51),
  ('Sb_GlyT1#5 (VHH) VHH: QVQLVESGGGLVQAGGSLRLSCAASGFPVMNRWMAWYRQAPGKEREWVAAVASYGETTRYADSVKGRFTISRDNAKNTVYLQMNSLKPEDTAVYYCNVKDWGWWTRAYDYWGQGTQVTVS', 'pKd', 7.09),
  ('Sb_GlyT1#2 (VHH) VHH: QVQLVESGGGLVQAGGSLRLSCAASGFPVYHRSMLWYRQAPGKEREWVAAIKSNGAGTWYADSVKGRFTISRDNAKNTVYLQMNSLKPEDTAVYYCTVGVGTNYWGQGTQVTVS', 'pKd', 5.60);

(a) Sb_GlyT1#4 (VHH) VHH: QVQLVESGGGLVQAGGSLRLSCAASGFPVYAYVMAWYRQAPGKEREWVAAIKSQGVSTYYADSVKGRFTISRDNAKNTVYLQMNSLKPEDTAVYYCYVYVGTSYTGQGTQVTVS
(b) Sb_GlyT1#6 (VHH) VHH: QVQLVESGGGLVQAGGSLRLSCAASGFPVVYYEMYWYRQAPGKEREWVAAITSSGWYTHYADSVKGRFTISRDNAKNTVYLQMNSLKPEDTAVYYCNVKDWGASWKQYDYWGQGTQVTVS
[ask] Form field 'greater pKd' accepts a or b ; which applies? Refer to your chosen item by its label in the answer.
[reply] b
(b: 9.31, a: 6.32)

All values here come from paper PMC5967865.
